# target-under-test: recombinant human AChE (Homo sapiens, UniProt P22303)
# Sequence (P22303 32-614): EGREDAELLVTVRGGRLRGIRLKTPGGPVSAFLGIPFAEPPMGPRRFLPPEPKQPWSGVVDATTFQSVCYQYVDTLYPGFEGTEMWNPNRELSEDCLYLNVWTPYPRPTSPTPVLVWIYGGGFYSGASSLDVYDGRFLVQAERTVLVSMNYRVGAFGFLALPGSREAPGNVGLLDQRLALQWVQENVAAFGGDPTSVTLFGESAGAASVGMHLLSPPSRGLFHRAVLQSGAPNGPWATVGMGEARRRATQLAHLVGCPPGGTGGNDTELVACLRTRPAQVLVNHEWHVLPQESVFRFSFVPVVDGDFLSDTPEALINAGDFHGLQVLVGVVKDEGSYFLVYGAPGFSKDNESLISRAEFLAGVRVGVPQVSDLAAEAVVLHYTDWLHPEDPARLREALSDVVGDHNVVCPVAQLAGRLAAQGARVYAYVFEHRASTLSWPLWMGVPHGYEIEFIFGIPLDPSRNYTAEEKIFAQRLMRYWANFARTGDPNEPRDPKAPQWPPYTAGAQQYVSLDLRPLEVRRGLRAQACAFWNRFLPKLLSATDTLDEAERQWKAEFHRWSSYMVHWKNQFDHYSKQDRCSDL
# measurement-notes: Reversible inhibition of AChE, Ellman method
# experimental-context: 0.1 M phosphate buffer pH 7.4, 25 °C, substrate ATCh; maximal tested concentration 100 µM for the trans derivatives (DMSO inhibits AChE); read-out: IC50 AChE (IC50 ± SE)
pIC50: −log10 of the molar value.
In this section, each of the molecules is paired with its reported pIC50.

GET /values?readout=pIC50&item= C(=C\c1cnco1)/c1ccc(NCc2ccccc2)cc1 [trans-2]
< 4.00

What do we get for C(=C/c1cnco1)/c1ccc(NCc2cccs2)cc1 [cis-18] ?
3.80

Same question for Cc1ccc(CNc2ccc(/C=C/c3cnco3)cc2)cc1 [trans-3] please.
< 4.00

Same lookup for Cc1cccc(CNc2ccc(/C=C/c3cnco3)cc2)c1 [trans-7] , please.
< 4.00

Try the molecule Nc1ccc2ccc3ocnc3c2c1 [Compound 23, Naphtho[1,2-d]oxazol-8-amine]
3.92

Also need Clc1ccc(CNc2ccc(/C=C/c3cnco3)cc2)cc1 [trans-5] , thanks.
< 4.00

Same read-out for Fc1cccc(CNc2ccc(/C=C/c3cnco3)cc2)c1 [trans-10] ?
< 4.00

And then COc1ccc(CNc2ccc(/C=C/c3cnco3)cc2)cc1 [trans-4] , what is it?
< 4.00

Now give it for "Fc1ccc(CNc2ccc3ccc4ocnc4c3c2)cc1" too.
4.35

Lookup Nc1ccc(/C=C\c2cnco2)cc1 [cis-22, (Z)-4–(2-(oxazol-5-yl)vinyl)aniline]
3.72

====

# target-under-test: BChE isolated from human plasma (Homo sapiens)
# Construct: BChE isolated from human plasma; from tissue; host or cells: human plasma
# measurement-notes: Reversible inhibition of BChE, Ellman method
# Assay type: biochemical
# experimental-context: 0.1 M phosphate buffer pH 7.4, 25 °C, substrate ATCh, at least three experiments; read-out: IC50 BChE (IC50 ± SE)
result-type: pIC50
For clarity, pIC50 is expressed as the negative log10 of concentration in mol/L.

# count of solved cases: 5
compound	pIC50
C(=C\c1cnco1)/c1ccc(NCc2ccccc2)cc1 [trans-2]	3.92
COc1ccccc1CNc1ccc(/C=C/c2cnco2)cc1 [trans-12]	4.55
Nc1ccc(/C=C\c2cnco2)cc1 [cis-22, (Z)-4–(2-(oxazol-5-yl)vinyl)aniline]	3.96
c1csc(CNc2ccc3ccc4ocnc4c3c2)c1	4.46
C(=C\c1cnco1)/c1ccc(NCc2ccco2)cc1 [trans-17]	4.19

Entry Fc1cccc(CNc2ccc(/C=C/c3cnco3)cc2)c1 [trans-10] : reported pIC50 = ?
4.49

Try Fc1ccc(CNc2ccc(/C=C/c3cnco3)cc2)cc1 [trans-6] next.
4.10

Proceed to Cc1cccc(CNc2ccc(/C=C/c3cnco3)cc2)c1 [trans-7]
3.89

Next up: Nc1ccc2ccc3ocnc3c2c1 [Compound 23, Naphtho[1,2-d]oxazol-8-amine]
3.00

Query c1ccc(CNc2ccc3ccc4ocnc4c3c2)cc1 [Compound 19, N-benzylnaphtho[1,2-d]oxazol-8-amine] next
3.85

What do you have for Cc1ccc(CNc2ccc(/C=C/c3cnco3)cc2)cc1 [trans-3] ?
3.92

====

pIC50 listing for selected compounds.
# target-under-test: BChE isolated from human plasma (Homo sapiens, UniProt P06276)
# Construct: BChE isolated from human plasma; from tissue; host or cells: human plasma
# Sequence (P06276 29-602): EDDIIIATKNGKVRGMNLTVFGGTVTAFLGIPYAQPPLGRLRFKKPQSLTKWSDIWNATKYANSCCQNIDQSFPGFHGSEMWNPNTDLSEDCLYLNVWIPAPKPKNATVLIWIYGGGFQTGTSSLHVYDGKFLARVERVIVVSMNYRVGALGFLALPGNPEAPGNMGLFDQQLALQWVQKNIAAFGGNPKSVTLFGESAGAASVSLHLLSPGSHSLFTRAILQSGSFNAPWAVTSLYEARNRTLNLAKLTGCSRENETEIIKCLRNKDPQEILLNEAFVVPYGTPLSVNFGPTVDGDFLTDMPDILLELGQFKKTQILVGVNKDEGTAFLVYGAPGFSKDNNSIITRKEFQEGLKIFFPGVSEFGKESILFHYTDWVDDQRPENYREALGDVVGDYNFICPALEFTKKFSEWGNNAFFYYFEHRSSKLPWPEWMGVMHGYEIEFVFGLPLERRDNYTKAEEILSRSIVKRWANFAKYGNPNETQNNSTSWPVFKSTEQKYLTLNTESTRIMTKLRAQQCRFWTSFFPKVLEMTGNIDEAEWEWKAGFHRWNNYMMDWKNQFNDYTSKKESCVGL
# measurement-notes: Reversible inhibition of BChE, Ellman method
# Format: biochemical
# experimental-context: 0.1 M phosphate buffer pH 7.4, 25 °C, substrate ATCh, at least three experiments; read-out: IC50 BChE (IC50 ± SE)
Give only the number. pIC50 is defined as minus log10 of concentration in molar units.

// worked examples, pIC50 included
compound	readout-value
Fc1ccc(CNc2ccc3ccc4ocnc4c3c2)cc1	4.92
C(=C/c1cnco1)/c1ccc(NCc2cccs2)cc1 [cis-18]	5.24
Clc1ccc(CNc2ccc(/C=C/c3cnco3)cc2)cc1 [trans-5]	4.06

Need pIC50 of COc1ccc(CNc2ccc(/C=C/c3cnco3)cc2)cc1 [trans-4] , thanks.
3.96

Subsequent entry: COc1cccc(CNc2ccc(/C=C/c3cnco3)cc2)c1 [trans-8]
4.44

What do you have for Cc1ccccc1CNc1ccc(/C=C/c2cnco2)cc1 [trans-11] ?
3.80

====

# target-under-test: recombinant human AChE (Homo sapiens)
# measurement-notes: Reversible inhibition of AChE, Ellman method
# experimental-context: 0.1 M phosphate buffer pH 7.4, 25 °C, substrate ATCh; maximal tested concentration 100 µM for the trans derivatives (DMSO inhibits AChE); read-out: IC50 AChE (IC50 ± SE)
result-type: IC50

These recorded examples may help you get a feel for the data.
compound	IC50
c1csc(CNc2ccc3ccc4ocnc4c3c2)c1	51 µM
Fc1ccc(CNc2ccc(/C=C/c3cnco3)cc2)cc1 [trans-6]	> 100 µM
COc1cccc(CNc2ccc(/C=C/c3cnco3)cc2)c1 [trans-8]	> 100 µM
c1ccc(CNc2ccc3ccc4ocnc4c3c2)cc1 [Compound 19, N-benzylnaphtho[1,2-d]oxazol-8-amine]	68 µM
C(=C\c1cnco1)/c1ccc(NCc2ccco2)cc1 [trans-17]	> 100 µM
COc1ccccc1CNc1ccc(/C=C/c2cnco2)cc1 [trans-12]	> 100 µM

Turning now to a further record.
# get_value(readout='IC50', item= Cc1ccccc1CNc1ccc(/C=C/c2cnco2)cc1 [trans-11] )
> 100 µM
